The reported numbers originate from paper PMC4924691.

# Test system: A431
# SETTINGS: read-out: IC50 (MTT), A431; human colon carcinoma (so in the source), p53 wt, 72 h
# Method: The cytotoxicity of 1 towards ten cancers cell lines with different p53 statuses (wt, mut or null) was subsequently examined assessed using the MTT assay (Supplementary Table S2). Inhibition of cell growth was measured using the MTT reagent (3-(4, 5-dimethylthiazol-2-yl)-2, 5-diphenyltetrazolium bromide). […] The absorbance of each well was read on a SpectraMax M5 microplate reader (Molecular Devices) at the wavelength of 570 nm.
MEASURED_ATTRIBUTE: pIC50
Remember, pIC50 is on a log scale: it is -log10 of the molar concentration.

**Q:** Assign pIC50 to the following record: CCc1ccc2[c](c1)[Ir-3]13([c]4cc(CC)ccc4-c4cccc[n+]41)([n+]1ccccc1-2)[n+]1ccc(Cl)c2ccc4c(Cl)cc[n+]3c4c21.F[P-](F)(F)(F)(F)F [Compound 1]
**A:** 6.38

====

# ASSAYED_TARGET: p53/hDM2 interaction (Homo sapiens)
# Construct: Expression of hDM2_17–126 recombinant fragment was performed as described previously
# PROCEDURE_DETAILS: Fluorescence anisotropy (FA) assay, displacement of p53_15–31Flu from hDM2_17–126
# SETTINGS: 150 nM hDM2_17–126, 50 nM p53_15–31Flu, 30 min, room temperature; read-out: IC50 against the p53/hDM2 interaction as determined by a FA assay
Exercise: for every item that follows, state its recorded pIC50.
Remember, pIC50 is on a log scale: it is -log10 of the molar concentration.

**Q:** Enter recorded pIC50 with p53/hDM2 interaction (Homo sapiens) for `Clc1cc2nc3c4cccnc4c4ncccc4c3nc2cc1Cl.F[P-](F)(F)(F)(F)F.Fc1c[c-]c(-c2ccccn2)c(F)c1.Fc1c[c-]c(-c2ccccn2)c(F)c1.[Ir+3]` here.
**A:** 4.48

**Q:** Enter recorded pIC50 with p53/hDM2 interaction (Homo sapiens) for `CCc1ccc2[c](c1)[Ir-3]13([c]4cc(CC)ccc4-c4cccc[n+]41)([n+]1ccccc1-2)[n+]1ccc(Cl)c2ccc4c(Cl)cc[n+]3c4c21.F[P-](F)(F)(F)(F)F` here.
**A:** 4.80

**Q:** Enter recorded pIC50 with p53/hDM2 interaction (Homo sapiens) for `F[P-](F)(F)(F)(F)F.c1cc[c]2c(c1)-c1ccc3ccccc3[n+]1[Ir-3]213([c]2ccccc2-c2ccc4ccccc4[n+]21)[n+]1cccc2c4nccnc4c4ccc[n+]3c4c21` here.
**A:** 4.68

====

# ASSAYED_TARGET: p53/hDM2 interaction (Homo sapiens, UniProt Q00987)
# Construct: Expression of hDM2_17–126 recombinant fragment was performed as described previously; made in house
# Sequence (Q00987 17-126): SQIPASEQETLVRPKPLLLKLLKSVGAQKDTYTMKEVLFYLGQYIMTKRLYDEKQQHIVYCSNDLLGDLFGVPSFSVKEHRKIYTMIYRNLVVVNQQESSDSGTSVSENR
# PROCEDURE_DETAILS: Fluorescence anisotropy (FA) assay, displacement of p53_15–31Flu from hDM2_17–126
# Type: binding
# SETTINGS: serial dilutions of compound; hDM2_17–126 with p53_15–31Flu
MEASURED_ATTRIBUTE: effect on fluorescence anisotropy / p53/hDM2 interaction

Below: 4 compounds and their reported effect on fluorescence anisotropy / p53/hDM2 interaction.
F[P-](F)(F)(F)(F)F.c1cc[c]2c(c1)-c1ccc3ccccc3[n+]1[Ir-3]213([c]2ccccc2-c2ccc4ccccc4[n+]21)[n+]1cccc2c4nccnc4c4ccc[n+]3c4c21 [Compound 5]	decreased significantly
CCc1ccc2[c](c1)[Ir-3]13([c]4cc(CC)ccc4-c4cccc[n+]41)([n+]1ccccc1-2)[n+]1ccc(Cl)c2ccc4c(Cl)cc[n+]3c4c21.F[P-](F)(F)(F)(F)F [Compound 1]	decreased significantly
Clc1cc2nc3c4cccnc4c4ncccc4c3nc2cc1Cl.F[P-](F)(F)(F)(F)F.Fc1c[c-]c(-c2ccccn2)c(F)c1.Fc1c[c-]c(-c2ccccn2)c(F)c1.[Ir+3] [Compound 6]	decreased significantly
Clc1cc2ccc[n+]3c2c2c1ccc[n+]2[Ir-3]312([c]3ccccc3-c3sc4ccccc4[n+]31)[c]1ccccc1-c1sc3ccccc3[n+]12.F[P-](F)(F)(F)(F)F [Compound 4]	no noticeable effect

Now take the following compound into account.
**Q:** Enter recorded effect on fluorescence anisotropy / p53/hDM2 interaction with p53/hDM2 interaction (Homo sapiens, UniProt Q00987) for F[P-](F)(F)(F)(F)F.[Ir+3].[c-]1ccccc1-n1cccn1.[c-]1ccccc1-n1cccn1.c1ccc(-c2ccccn2)nc1 [Compound 3] here.
**A:** no noticeable effect
